Experiment: soluble on expression in E. coli; label from the status in PepcDB or PDB records

CHAIN	soluble on expression in E. coli
MAHHHHHHMSSTSTTHPQLLLQQSKVKYLMKVCRPLCQFTQKCNRGSWVERTFGAERKKASSASEDNDLLSMHLPFSSDTAPPCGYSTTEAVRLISLPYHPHVYAYCLFESRLIFERAVLHGAIAPNVKPSQFFVHPISVMRHPEKFKLFFGEERSDVLLRLLVDLLGEYDGDDRSVVQKCRAKGVSNENWVPFLRGLGLCLAMGDIASSQATFVMEDCITGGGADCGLSLPGSYEKRGSVAAELLMEASVELGSLTLANLSLSLYRQFLPEVPLTASKKVTICTTRCERRFLEWNQRCLKTGPRR	not soluble
MGSDKIHHHHHHMSQSAITVDQVTVTYRNGHTALRDATFQVPGGSIAALVGVNGSGKSTLFKALMGFVHLAQGDITILQQSVNKALKKNLIAYVPQSEEVDWSFPVLVEDVVMMGRYGHMGWLRRPTAHDHACVDAALARVDMQEYRHRQIGELSGGQKKRVFLARAIAQDGQVILLDEPFTGVDVKTEARIIDLLRELRDEGRTMLVSTHNLGSVTEFCDYTVMIKGTVLASGPTETTFTAANLEQAFSGVLRHIALSGGEEHIITDDERPFISRRVASGGKSS	not soluble

----------
Test: soluble on expression in E. coli; label from the status in PepcDB or PDB records

CHAIN	soluble on expression in E. coli
GPGSMIKIHTEKDFIKMRAAGKLAAETLDFITDHVKPNVTTNSLNDLCHNFITSHNAIPAPLNYKGFPKSICTSINHVVCHGIPNDKPLKNGDIVNIDVTVILDGWYGDTSRMYYVGDVAIKPKRLIQVTYDAMMKGIEVVRPGAKLGDIGYAIQSYAEKHNYSVVRDYTGHGIGRVFHDKPSILNYGRNGTGLTLKEGMFFTVEPMINAGNYDTILSKLDGWTVTTRDKSLSAQFEHTIGVTKDGFEIFTLSPKKLDYPPY	soluble
MSLRITTLEELLEALDELFDDGSDLTRRGAQDPWERVFSQPGHPLASDLPDACLVDWTRQGLLPSGDGLTALDLGCGLGRNARWLARQGYAVTGLDLSPYAVGQARERTPGPDIRYLEGDVLRDPIPGGPFDVVYDSGCFHHLPPHRRLSYLHTLGQVLRPGGWFGLCTFAWGRMGSAKSDLELLRQGQLEGGVGYTLDDLREMFGGLDFVTGSLLSELEPASEPVFQMDFLQAALFRREGHHHHHH	soluble
MSLAMNKVPGYNIYIGGVFALKNKVAMSGANITHVLSVIRLRPKDDLFAGYQHHRIEVDDLDDENLLEHFPSAIKFIQSGLDAGGGVLVHWPLTASSAMGKSRSATVCIAYLLRRQRNALTPQSALALLRESRPLCEPNPGFMEQLNVYYQMGEGHHHHHH	not soluble
LRIEPVHDVEHSATVRDLEHIVAESRDAGELPRELSTLLGRILDFPTRTAGHAMIPRAHVDTVRAHDSLSSVLEKMGAGHTRYPVVGSSSDDLRGVIHLHDLLGEQSDGPAASRARPAVVVPSSLPLPDVLEQLTAARDEMALVVDEYGGFAGVITIEDLAEELVGEIA	not soluble

----------
Experiment: soluble on expression in E. coli; label from the status in PepcDB or PDB records

CHAIN	soluble on expression in E. coli
GLISDIIACPGMDYCALATARSIPVAQEIATRFEELKLEHEIGALKIKISGCINACGHHHVGHIGILGLDRAGVENYQITLGGDATETAAIGERTGPGFAYDQIVPAVERIVETYLDQRRDREESFIETYRRVGMAPFKAALYPE	not soluble
MAHHHHHHMQLKERLQQWRERGLQGADVDPPVQRPRSFRPSCIVPRLYLGAAKDVQDVRTLRSRLLPDKLLMVVSTCDPSDPPRMELRQIAPTKGTAYTVKRLAVCSWEELEKRVVTSSFCCRLPRNEVMVATAEWLKEVLKTKSLPPVSLEECRDVQKGETDGKVSEVFEEGLYLKLCLPWKDESNFTVRPYFAVATALIHATMDGIQGAVVCYCMAGKSRSATLTCALLLYCCYDNVGRPKDEEECSAYKAVQAVVEFVREVRLCVSPNEGFIEQLRDYASDLLAV	not soluble

----------
Assay: soluble on expression in E. coli; label from the status in PepcDB or PDB records
READOUT TYPE: soluble on expression in E. coli

Example cases with answers are listed next.
CHAIN	soluble on expression in E. coli
NKYNKIANELIKIIGEDNIISITHCATRLRVMVKDREIINDKKVEKVDEVKGVFFTSGQYQIILGTGIVNKVYAEVEKMGLKTLSKKEQDELVKNNE	soluble
MGSDKIHHHHHHMINPAHFDLQSLRIFLQVAQSGSLTKAAEKFHITLSALSKRIAELERTVDCALFIRMPRGLTLTPAGKELVNLAGNVLSNVERMASEMNDYAVGVRGHVHMWANTSAIIQFLPQDLASFLPTRPLIRINLEEKLSKTVVTALAMGEADIGIFVDNVGSQGVEKIPYRKDKLVVLVPPQHPLSALSDVSFNDTLGYDYVGLNSGSSLLKQLKDASDELGRVLRLRVQVSSFDGICRMIEAGLGISVLPEGAIRPEVLGTGLRAINLTDEWASRQLWLGVKSGAILQPEVTNLLTHLRQCGA	not soluble
MGSDKIHHHHHHMNRGCFDIAVITDREAFQAILDEWNQLADINGYYTPWFCWEWFDLCLRHGETRALHILMVRSGGSLVAVAPFTVRSERYKGVVPARILSSIGGNRSPLKGIVFGDADENMQREVTTLVLEYLRTTFKNWDILELEPVAGSNDGNSIETLIERQGLSFRSYISCANRYCDVADASFDGFFERLPQSTRKDINYCRRRLEKNGSLVFQIITDAASLDQCLDVYDAVRAKSWKAAEKDREFNRELMHVAAGKGWLRLGILSYDGTPIAVQKWIVANGRAYIYDVLYDEEYKKHSPGKILTSMMFQHAIDNERVAYVDYLRGDEPYKEEWTPSLRNRIGIEAYNKSVLGCTASILMKKILPLVKKNTDSTNAHK	not soluble
MAGNHTNRPGLRKTNKKGATKGSGAVRRRGLKGKGPTPKAEDREYHAAYKKKMERKRRDQGRHVKEETSELVVGRNPVVECLHAKVPATT	not soluble
MGSDKIHHHHHHMKKPFLHSESAADVGMEIQQSYDRLLETTRKWIDILHFDPLLETGLTPRDIVWRKNKSRLYRYVNHKGYKHRTPILMLYALINKAYILDLRPGMSLVEYLVDQGFDVYLLDWGEFDWEDRDLSFSQLIVDYISRAVYKVCQYSNVNELSILGYCMGGTMATMYASLYPQPRIKNMIYVAAPIDFEDAGLSSIWLKASVFDVDKVTDTFSLIPKEFVDLGLKMLNPVNNFVATYTRLWKAIDEGVSIEAWKALNKWVDDNINFPGKAYREWVKYLYQENALVKDEFIINGRKVVLSNIDAALLVLTGKTDHIVLPQQSTPILELSSSQDKTNLQYPVGHGGLVFGSRARNEVYPTIAEWLAQRS	not soluble
MGSDKIHHHHHHMKNNTGYIIGAYPCAPSFHQKSEEEETEFWRQLSDTPDIRGLEQPCLEHLHPLGDEWLLRHTPGNWQIVVTAIMETMRRRSENGGFGLASSDEEQRKACVEYYRHLYQKINKINGNNTGKVIALELHAAPLAGNPNVAQATDAFARSLKEIANWDWSCDLVLEHCDAMTGPAPRKGFLPLVNVLETIADYDISVCINWARSAIEGRDTSLPLIHTQQAKQAGKLGALMFSGTTLDGEYGEWQDLHAPFAPFCPQSLMTEKHVKELITAAAPELLQFTGIKLLEINASADINHRINILRDGINMMKKATRR	not soluble

Form: sequence = "MVQELLKQLQNGEAKFADVLAYIESRFEHQPTAFKNGQQQNAATENQGSAKVFSLAQIEGLNQTETLSLFAEHYAAVLNTPEGTDHQNIRQFMQHGWDGVTFEGEALQAK" ; soluble on expression in E. coli = not soluble

sequence "FKDFRLGINLNGVYAKNKILFWDEAPGTPEWQKSTGKPIDSGLYYEAIGIFKDQAAVDAYPHWAGARPGDIIFKDVNGDNVIDGNDRVRNDKSRTPRFTGGLNVDLGYKDFDLSFLLQGAMGGVFYQTTESGDFANFLKSFYDNRWTEENPDADFPRTYNRSNEYFINQQNTFWLHKTDYIRLKNIELGYTVPSIWSKKIGVEHLRVYINAYNLLTISPDMKDYDPENTSGSGYNYPLNKVINFGVNLTF" , soluble on expression in E. coli observed: not soluble

"MAHHHHHHMPLPPLEEAPRSMTRRNYLVERNRLRVSAYAPTRRELEEEDIRMAQTREERRRNMLNSWKSQSMYNPDLTRPLPGGGPRSKRMKEAATLKNPNYYKIVKEEEAQLKAERTAMYRADVLQQLKDREEYLRKWREDEKAYVSSLVESNKEQARKLEEREREEARAEKEYMNRMRESNLRELEQKRMKEREREEYELSLIRTVQAREKEKAETEERRARDMKQMMRRENEEYHRSIKKKQKEDKAREEAELKAILEYNATLAERERQEQKQRRDQYKAEFEETIEKQKEFFRTHNYDEPPESIRERNEKAAAALALIKKEERLRLADRRREYRQELMQQIREKQEWQLTHIDGV" has a reported soluble on expression in E. coli of not soluble

Please fill in: soluble on expression in E. coli reported for "MGSDKIHHHHHHMKRRDFLITSAAALSFLLSGCAIGDRVVEEPLTPKSNPPRKSVVYVLKTERREEAVSKLMQNFSDFEGSTVGLKANYNSADPFPASTHPKTLSAIVDVLKEQKAEVFMAERSGMGNTSAVLKTMGILDLAREKGFTVIDLDSYDGWVLHQPEDSHWKKGYPFADIFLTVDSVIQTCCLKTHRFGGHFTMSLKNSVGMVARRWKGHDYMSELHTSPHMRKMIAEINVSYSPKIVIMDAIKGFSHGGPERGTVIEPGLMIASNDRVAIDAVGVAILRIHGTTPEVSKGSVFEQEQIARAIEIGLSSGEFEIIPANDDAEKICSEIEAVLWG" = not soluble

soluble on expression in E. coli reported for this sequence "MCENEEYRERFPDKHFDLETVLQAKVRPICVVPERTFIGFFHREKSKEEEEKEDVSLDFLKGVMSFDSIWEEIMKQEPEESASEHVIYIVSWNDHYFVLLVNHDAYYIIDTLGERVYEGCNQAYVLKFDQDAEIKRLPSVIKDNKADMGSQKQGGKNKYEQPERSKESEEQGEEVVVCRGKESCREYIKSFLAAIPIQQVKADMKEGLVSSFHHRLQIELYYTKHLHHRQPNMFESSTTKVTVSEATVSMTVAWLLASQFSNSGGFGCEMAELLGIKV" : soluble
